test system: female imagines of Kanzawa spider mite (Tetranychus kanzawai kishida) which had acquired a strong resistance to chlorfenapyr; experiment: Miticidal effect on female imagines of chlorfenapyr-resistant Kanzawa spider mite, leaf disk spray test; type: in vivo; settings: single test compound; chlorfenapyr-resistant strain, female imago; mortality two days after treatment; probit analysis
readout: LC50 (ppm)
Numbers only, in ppm.

# per-item lookup of LC50; items listed below
1. C/C1=C\C[C@@H]2C[C@@H](C[C@]3(CC[C@H](C)[C@@H](C)O3)O2)OC(=O)[C@@H]2CC[C@@H](O)[C@H]3OC/C(=C\C=C\[C@H](C)C1)[C@]32O (mixture of isomers) [Milbemectin]
2. O=S(=O)(c1ccc(Cl)cc1)c1cc(Cl)c(Cl)cc1Cl [Tetradifon, 2,4,5,4′-tetrachlorodiphenyisulfone]
3. Cc1ccc(N=CN(C)C=Nc2ccc(C)cc2C)c(C)c1 [Amitraz]
4. CC(C)OC(=O)C(O)(c1ccc(Br)cc1)c1ccc(Br)cc1 [Phenisobromalate, isopropyl 4,4′-dibromobenzilate]

### Response
1: 0.28; 2: 4900; 3: 200; 4: 280

---

system: female imagines of Kanzawa spider mite (Tetranychus kanzawai kishida) which had acquired a strong resistance to chlorfenapyr; assay: Miticidal effect on female imagines of chlorfenapyr-resistant Kanzawa spider mite, leaf disk spray test; type: in vivo; conditions: single test compound; chlorfenapyr-resistant strain, female imago; mortality two days after treatment; probit analysis
Kindly state LC50 for each of the entries shown.
Numbers only, in ppm.

Example compounds with recorded LC50:
CCOCn1c(-c2ccc(Cl)cc2)c(C#N)c(Br)c1C(F)(F)F [Chlorfenapyr]: 1500
CN(C)C(=O)SCCCCOc1ccccc1 [Fenothiocarb, S-4-phenoxybutyl-dimethylthiocarbamate]: 1000
CCC(C)c1cc([N+](=O)[O-])cc([N+](=O)[O-])c1OC(=O)C=C(C)C (stereo not shown) [Binapacryl]: 180

Okay, next one:
### Prompt Which LC50 value is on record for OC(c1ccc(Cl)cc1)(c1ccc(Cl)cc1)C(Cl)(Cl)Cl [Kelthane (Dicofol)] ?
### Response 32
